Cited source for all entries: patent US20210045385A1

Each entry below carries its reported Kochia plant response rating (0 to 100 scale).
test system: kochia (Kochia scoparia); experiment: Test A postemergence, visual plant response rating; format: in vivo; settings: 500 g ai/ha, postemergence; 0 is no effect, 100 is complete control
Quantity measured: Kochia plant response rating (0 to 100 scale)

{"columns": ["Compound", "Measured number"],
 "data": [
  ["CCO/N=C(/c1cccc(C)c1C)c1c(O)c(C)nn(C)c1=O [Compound 24]", 20],
  ["CO/N=C(\\c1c(O)c(C)nn(C)c1=O)c1cccc2ccccc12 [Compound 26]", 90],
  ["CON=C(c1ccc(C)s1)c1c(O)c(C)nn(C)c1=O (mixture of isomers) [Compound 144]", 0],
  ["CO/N=C(\\c1sccc1C)c1c(O)c(C)nn(C)c1=O [Compound 42]", 50]
]}

====

test system: ragweed (common ragweed, Ambrosia elatior); test: Test A postemergence, visual plant response rating; format: in vivo; details: Postemergence, 125 g ai/ha; 0 to 100 scale (0 no effect, 100 complete control)
Decision: Ragweed plant response rating beneath 40 gives Fulfilled; Ragweed plant response rating meeting or exceeding 40 gives Not fulfilled.

{"columns": ["Compound", "Study target", "Answer label"],
 "data": [
  ["CCO/N=C(\\c1c(O)c(Cl)nn(C)c1=O)c1cccc2ccccc12", "ragweed (common ragweed, Ambrosia elatior)", "Not fulfilled"],
  ["Cc1cccc(/C(=N\\O)c2c(O)c(C)nn(C)c2=O)c1", "ragweed (common ragweed, Ambrosia elatior)", "Fulfilled"],
  ["CO/N=C(\\c1cccc(C#N)c1)c1c(O)c(C)nn(C)c1=O", "ragweed (common ragweed, Ambrosia elatior)", "Fulfilled"],
  ["CON=C(c1cc(C)ccc1Cl)c1c(O)c(C)nn(C)c1=O", "ragweed (common ragweed, Ambrosia elatior)", "Not fulfilled"],
  ["CO/N=C(\\c1cccc(C)c1)c1c(O)c(C)nn(C)c1=O", "ragweed (common ragweed, Ambrosia elatior)", "Not fulfilled"],
  ["CO/N=C(/c1cc(Cl)ccc1C(F)(F)F)c1c(O)c(C)nn(C)c1=O", "ragweed (common ragweed, Ambrosia elatior)", "Not fulfilled"],
  ["CO/N=C(\\c1ccsc1C)c1c(O)c(C)nn(C)c1=O", "ragweed (common ragweed, Ambrosia elatior)", "Fulfilled"],
  ["CON=C(c1cc(C)cs1)c1c(O)c(C)nn(C)c1=O (mixture of isomers)", "ragweed (common ragweed, Ambrosia elatior)", "Fulfilled"]
]}

====

Each entry below carries its reported Barnyardgrass plant response rating (0 to 100 scale).
tested on: barnyardgrass (Echinochloa crus-galli); assay: Test A preemergence, visual plant response rating; type: in vivo; conditions: 125 g ai/ha Preemergence; approx. 10 days
Excerpt: […]
Quantity measured: Barnyardgrass plant response rating (0 to 100 scale)

{"columns": ["Compound", "Measured number"],
 "data": [
  ["CO/N=C(\\c1c(O)c(C)nn(C)c1=O)c1cccc2ccccc12", 40],
  ["CCO/N=C(\\c1ccccc1C)c1c(O)c(C)nn(C)c1=O", 40],
  ["CON=C(c1cccc(Cl)c1)c1c(O)c(C)nn(C2CC2)c1=O (mixture of isomers)", 0],
  ["CO/N=C(/c1cccc(C)c1)c1c(O)c(C2CC2)nn(C)c1=O", 0],
  ["C#CCn1nc(C)c(O)c(C(=NOC)c2cccc(Cl)c2)c1=O (mixture of isomers)", 0],
  ["CO/N=C(/c1cccc(C)c1C)c1c(O)c(C)nn(C)c1=O", 0],
  ["CON=C(c1ccccc1Cl)c1c(O)c(C)nn(C)c1=O (stereo in doubt)", 30],
  ["CCO/N=C(/c1cccc(C)c1C)c1c(O)c(C)nn(C)c1=O", 0]
]}

====

test system: pigweed (Amaranthus retroflexus); assay: Test A postemergence, visual plant response rating; assay type: in vivo; conditions: 500 g ai/ha, postemergence; 0 is no effect, 100 is complete control
Decision: Pigweed plant response rating (0 to 100 scale) beneath 40 gives 1 (yes); Pigweed plant response rating (0 to 100 scale) meeting or exceeding 40 gives 0 (no).

{"columns": ["Compound", "Answer label"],
 "data": [
  ["C=CCc1ccccc1C(=NOC)c1c(O)c(C)nn(C)c1=O", "0 (no)"],
  ["CO/N=C(/c1cc(Cl)ccc1C(F)(F)F)c1c(O)c(C)nn(C)c1=O", "0 (no)"],
  ["CO/N=C(\\c1ccsc1C)c1c(O)c(C)nn(C)c1=O", "0 (no)"],
  ["CON=C(c1c(O)c(C)nn(C)c1=O)c1cccc2ccoc12 [Compound 60]", "0 (no)"],
  ["CON=C(c1cccc(C#N)c1)c1c(O)c(C)nn(C)c1=O", "1 (yes)"],
  ["CO/N=C(/c1ccccc1Cl)c1c(O)c(C)nn(C)c1=O", "0 (no)"],
  ["CCO/N=C(/c1ccc(C)cc1)c1c(O)c(C)nn(C)c1=O", "1 (yes)"],
  ["Cc1cccc(/C(=N\\O)c2c(O)c(C)nn(C)c2=O)c1", "0 (no)"],
  ["CON=C(c1cccc(Cl)c1)c1c(O)c(C)nn(CC2CC2)c1=O (mixture of isomers)", "1 (yes)"],
  ["Cc1nn(C)c(=O)c(/C(=N\\OC(C)C)c2ccc(F)c3ccccc23)c1O", "0 (no)"],
  ["CO/N=C(\\c1cccc(C)c1C)c1c(O)c(C)nn(C)c1=O", "0 (no)"],
  ["CON=C(c1cccc(C2CC2)c1)c1c(O)c(C)nn(C)c1=O", "0 (no)"],
  ["CON=C(c1cc(C)ccc1Cl)c1c(O)c(C)nn(C)c1=O", "1 (yes)"],
  ["CON=C(c1cc(C)cs1)c1c(O)c(C)nn(C)c1=O (mixture of isomers)", "0 (no)"],
  ["CON=C(c1ccc(C)s1)c1c(O)c(C)nn(C)c1=O (mixture of isomers)", "1 (yes)"],
  ["CON=C(c1c(O)c(C)nn(C)c1=O)c1csc2ccccc12 (single isomer, unassigned)", "1 (yes)"],
  ["CO/N=C(\\c1ccccc1C(C)C)c1c(O)c(C)nn(C)c1=O", "0 (no)"]
]}

====

test system: pigweed (Amaranthus retroflexus); assay: Test C preemergence, visual plant response rating; format: in vivo; details: Test C, 125 g ai/ha, 0 is no effect, 100 is complete control
Kindly return 1.0 if reported Pigweed plant response rating (0 to 100 scale) is no lower than 20; return 0.0 if it is lower.

{"columns": ["Query smiles", "Answer label"],
 "data": [
  ["CCO/N=C(\\c1c(O)cnn(C)c1=O)c1ccc(F)c2ccccc12", 0.0],
  ["CON=C(c1cccc(OC)c1)c1c(O)c(C)nn(C)c1=O", 0.0],
  ["CO/N=C(/c1c(O)c(C)nn(C)c1=O)c1cccc2cc(SC)ccc12", 0.0],
  ["CO/N=C(\\c1cc(F)cc(C)c1F)c1c(O)c(C)nn(C)c1=O", 1.0],
  ["C#CCO/N=C(/c1c(O)c(C)nn(C)c1=O)c1cc(Cl)cc2ccccc12", 1.0],
  ["C#CCON=C(c1cccc(OC)c1)c1c(O)c(C)nn(C)c1=O", 0.0],
  ["Cc1nn(C)c(=O)c(C(=NOC(C)C)c2cc(Cl)cc(Cl)c2Cl)c1O", 1.0],
  ["CC(C)O/N=C(\\c1c(O)c(Cl)nn(C)c1=O)c1ccc(F)c2ccccc12", 1.0],
  ["CO/N=C(\\c1c(O)c(Cl)nn(C)c1=O)c1ccc(F)c2ccccc12", 1.0],
  ["C#CCO/N=C(/c1c(O)c(Cl)nn(C)c1=O)c1ccc(F)c2ccccc12", 1.0],
  ["CON=C(c1cccc(OC(F)F)c1)c1c(O)c(C)nn(C)c1=O", 0.0]
]}

====

tested on: Italian ryegrass (Lolium multiflorum); assay: Test A postemergence, visual plant response rating; assay type: in vivo; conditions: Postemergence; rate not given; approx. 10 days
Quantity measured: Ryegrass, Italian plant response rating (0 to 100 scale)

{"columns": ["Query smiles", "Measured number"],
 "data": [
  ["CO/N=C(/c1cscc1C)c1c(O)c(C)nn(C)c1=O", 10],
  ["CCO/N=C(/c1c(O)c(Cl)nn(C)c1=O)c1cccc2ccccc12", 0],
  ["CO/N=C(/c1c(O)c(C)nn(C)c1=O)c1ccc(OC)c2ccccc12", 0],
  ["CO/N=C(/c1c(O)c(Cl)nn(C)c1=O)c1cccc2ccccc12", 20]
]}

====

tested on: barnyardgrass (Echinochloa crus-galli); assay: Test C postemergence, visual plant response rating; assay type: in vivo; conditions: Test C, postemergence, 125 g ai/ha
Text: […]
Kindly return met if reported Barnyardgrass plant response rating (0 to 100 scale) is no lower than 20; return not met if it is lower.

{"columns": ["Compound", "Answer label"],
 "data": [
  ["CO/N=C(/c1c(O)c(C)nn(C)c1=O)c1cc(SC)cc2ccccc12 [Compound 298]", "not met"],
  ["CCO/N=C(/c1c(O)c(Cl)nn(C)c1=O)c1ccc(F)c2ccccc12 [Compound 211]", "met"],
  ["CO/N=C(/c1cc(Cl)cc(OC)c1)c1c(O)c(C)nn(C)c1=O [Compound 165]", "met"],
  ["C#CCO/N=C(/c1c(O)c(C)nn(C)c1=O)c1cccc2cc(Cl)ccc12 [Compound 242]", "met"],
  ["CO/N=C(\\c1cccc(/C=C/Cl)c1)c1c(O)c(C)nn(C)c1=O [Compound 286]", "met"],
  ["CO/N=C(/c1c(O)c(C)nn(C)c1=O)c1cccc2cc(SC)ccc12 [Compound 297]", "not met"],
  ["C#CCO/N=C(/c1cccc(Br)c1)c1c(O)c(C)nn(C)c1=O [Compound 277]", "met"],
  ["CCON=C(c1cc(Cl)cc(Br)c1)c1c(O)c(C)nn(C)c1=O [Compound 181]", "met"]
]}
